Assay: chemical genetic growth profiling, strain panel (AID 1159580);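 note: tested at 20 µM; growth read once vehicle control cultures reached saturation at 30 °C; 1 = growth at the plate median or of vehicle wells; lower values mean less growth of the strain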
Settings: S. cerevisiae deletion strains, growth OD, locus YBR279W, strain paf1, hits give low values
In all, about 5,500 compounds went through this assay and about 2,000 (36%) were called active. Not shown: some 18% with an inconclusive outcome. Some of the results follow.
ATTRIBUTE_MEASURED: normalized growth
Form field (numeric): enter value without unit.

INSERT INTO results (compound, readout_value) VALUES
  ('CC1(C)CC2C1CCC1(C)OC1CCC2(C)O (stereo unspecified)', 1.03),
  ('Cc1ccc(C(C)C)cc2c(C)ccc1-2', 1.01),
  ('O=C(NC(Cc1cc(=O)[nH]c2ccccc12)C(=O)O)c1ccc(Cl)cc1 (stereo unspecified)', 0.997),
  ('C[C@H](COc1ccccc1)N[C@H](C)[C@H](O)c1ccc(O)cc1', 0.982),
  ('CS(=O)(=O)OCCCCOS(C)(=O)=O', 1.01);

Input: Read off the recorded normalized growth for O=C1CN(/N=C\c2ccc([N+](=O)[O-])o2)C(=O)N1
Output: 0.97

Input: Read off the recorded normalized growth for S=c1[nH]c2ccccc2s1
Output: 0.982

Input: Read off the recorded normalized growth for COS(C)(=O)=O
Output: 1

Input: Read off the recorded normalized growth for C=CCN1CC[C@]23c4c5ccc(O)c4OC2C(=O)CC[C@@]3(O)[C@H]1C5 (stereo partly specified)
Output: 0.955

Input: Read off the recorded normalized growth for COc1cc2c(cc1O)CC1c3c(cc(O)c(OC)c3-2)CCN1C (stereo unspecified)
Output: 1.01
